Examples of compounds with documented TIMS collisional cross section follow.
# assay-notes: TIMS collisional cross section (CCS, N2) of the lipid ion; higher = larger ion cross section
# measurement-conditions: sample type: plasma; ionization mode: positive; one isomer drawn
Record the value in Å², omitting the unit from your answer.

- compound: "CCCCC/C=C\\C/C=C\\C/C=C\\CCCCC(=O)OC[C@H](COP(=O)([O-])OCC[N+](C)(C)C)OC(=O)CCCCCCC/C=C\\CCCCCCCCC [PC 18:3@_19:1] (ion (formula + adduct): [C45H82NO8P+H] 1+)"
  TIMS collisional cross section [Å²]: 295
- compound: "CCCCC/C=C\\C/C=C\\C/C=C\\C/C=C\\CCCC(=O)O[C@H](CO/C=C\\CCCCCCCCCCCCCCCC)COP(=O)(O)OCCN [PE P- 18:0@_20:4] (ion (formula + adduct): [C43H78NO7P+H] 1+)"
  TIMS collisional cross section [Å²]: 281.6
- compound: "C[C@H](CO)CC[C@H](O)[C@@H](C)[C@H]1CC[C@H]2[C@@H]3CC=C4C[C@@H](O)CC[C@]4(C)[C@H]3CC[C@]12C [Dormatinol] (ion (formula + adduct): [C27H46O3+H] 1+)"
  TIMS collisional cross section [Å²]: 210.9
- compound: "CCCCC/C=C\\C/C=C\\CCCCCCCC(=O)OC[C@@H](COC(=O)CCCCCCC/C=C\\CCCCCC)OC(=O)CCCCCCC/C=C\\CCCCCCC [TG 16:1_17:1_18:2] (ion (formula + adduct): [C54H96O6+NH4] 1+)"
  TIMS collisional cross section [Å²]: 314.6
- compound: "CCCCCCCCCCCCCCCCCCCCCC(=O)OC[C@@H](COC(=O)CCCCCCCCCCCCCCC)OC(=O)CCCCCCCCCCCCCCCCCCC [TG 16:0_20:0_22:0] (ion (formula + adduct): [C61H118O6+NH4] 1+)"
  TIMS collisional cross section [Å²]: 343.5

Which TIMS collisional cross section is listed for CCCCCCCCCCCCCCCCCCCCCC(=O)OC[C@@H](COC(=O)CCCCCCCCCCCCCCC)OC(=O)CCCCCCCCCCCCCCCCCCCC [TG 16:0_21:0_22:0] (ion (formula + adduct): [C62H120O6+NH4] 1+) ?
346

Form field: reported TIMS collisional cross section of CCCCCC/C=C\CCCCCCCC(=O)OC[C@@H](COC(=O)CCCCCCCCCCCCC)OC(=O)CCCCCCCCCCCCCCC [TG 14:0_16:0_16:1] (ion (formula + adduct): [C49H92O6+NH4] 1+)
306

# input compound: CC/C=C\C/C=C\C/C=C\CCCCCCCC(=O)O[C@@H](COC(=O)CCC/C=C\C/C=C\C/C=C\C/C=C\CCCCC)COC(=O)CCCCCCC/C=C\C/C=C\CCCCC [TG 18:2_18:3_20:4] (ion (formula + adduct): [C59H96O6+NH4] 1+) ; wanted: its TIMS collisional cross section
321.6

Look up TIMS collisional cross section for this compound: CC/C=C\C/C=C\C/C=C\CCCCCCCC(=O)O[C@@H](CO)COC(=O)CCCCCCC/C=C\CCCCCCCC [DG 18:1_18:3_0:0] (ion (formula + adduct): [C39H68O5+NH4] 1+)
258.8
